Data origin, for the record: PubChem BioAssay AID1963870

Test system: 292921-168-R-J2-PDC KRAS tumor spheroid viability
Test: Anticancer human tumor 292921-168-R-J2-PDC patient-derived pancreatic carcinoma cell line growth inhibition [KRAS2]
Settings: second compound 0.1 µM; first compound 0.00316 µM; stronger effect = lower value; spheroids with HUVEC and MSC
Source text: Multicellular complex tumor spheroid response to RAS pathway inhibitors in combination with a targeted agents in patient-derived cell lines with oncogenic KRAS variants from multiple cancer types A high-throughput screen of multi-cell type tumor spheroids was designed to identify active combinations of targeted small molecules and KRAS pathway inhibitors. […] Compounds. […] If the clinical Cmax for an agent had not been determined, the highest concentration tested was 10 microM. […]
propertyName: viability, T/C (%)
Response body: numeric value in %, unit text excluded.

Please review the following examples before continuing.
| compound | targetOrTestSystem | propertyName | recordedMeasurement |
| --- | --- | --- | --- |
| CCN1CCN(Cc2ccc(Nc3ncc(F)c(-c4cc(F)c5nc(C)n(C(C)C)c5c4)n3)nc2)CC1 + C=CC(=O)N1CCN(c2nc(=O)n(-c3c(C)ccnc3C(C)C)c3nc(-c4c(O)cccc4F)c(F)cc23)C(C)C1 | 292921-168-R-J2-PDC KRAS tumor spheroid viability | viability, T/C | 95 |
| CCN1CCN(Cc2ccc(Nc3ncc(F)c(-c4cc(F)c5nc(C)n(C(C)C)c5c4)n3)nc2)CC1 + CNCc1ccccc1-c1csc(C(C)Nc2nc(C)nc3cc(OC)c(OC)cc23)c1 | 292921-168-R-J2-PDC KRAS tumor spheroid viability | viability, T/C | 76.5 |

Now for a further compound.
Query: Report viability, T/C for CN(C)C/C=C/C(=O)Nc1cc2c(Nc3ccc(F)c(Cl)c3)ncnc2cc1O[C@H]1CCOC1 + COc1cc2nc(C)nc(NC(C)c3cc(N)cc(C(F)(F)F)c3)c2cc1OC1CCOC1 tested on 292921-168-R-J2-PDC KRAS tumor spheroid viability.
Reply: 84.8

###

Quick list: viability, T/C per entry.
system: 292921-168-R-J2-PDC KRAS tumor spheroid viability; experiment: Anticancer human tumor 292921-168-R-J2-PDC cell line growth inhibition [KRAS2]; settings: second compound 0.316 µM; first compound 10 µM; stronger effect = lower value; spheroids with HUVEC and MSC;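 also: drug exposure lasted seven days after spheroids formed for three days; percent of DMSO vehicle control viability which is 100%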

Please review the following examples before continuing.
| molecule | viability, T/C |
| --- | --- |
| COc1cc2nccc(Oc3ccc(NC(=O)C4(C(=O)Nc5ccc(F)cc5)CC4)cc3)c2cc1OC + COc1cc2nc(C)nc(NC(C)c3cc(N)cc(C(F)(F)F)c3)c2cc1OC1CCOC1 | 23.7% |
| COc1cc(Nc2ncc3c(n2)-c2ccc(Cl)cc2C(c2c(F)cccc2OC)=NC3)ccc1C(=O)O + CC1OCC2(CCN(c3cnc(Sc4ccnc(N)c4Cl)c(N)n3)CC2)C1N | 10.6% |
| COc1cc2nccc(Oc3ccc(NC(=O)C4(C(=O)Nc5ccc(F)cc5)CC4)cc3)c2cc1OC + C=CC(=O)N1CCN(c2nc(=O)n(-c3c(C)ccnc3C(C)C)c3nc(-c4c(O)cccc4F)c(F)cc23)C(C)C1 | 19.8% |

Query: Report viability, T/C for CC1(C)CCC(CN2CCN(c3ccc(C(=O)NS(=O)(=O)c4ccc(NCC5CCOCC5)c([N+](=O)[O-])c4)c(Oc4cnc5[nH]ccc5c4)c3)CC2)=C(c2ccc(Cl)cc2)C1 + C=CC(=O)N1CCN(c2nc(OCC3CCCN3C)nc3c2CCN(c2cccc4cccc(C)c24)C3)CC1CC#N please.
Reply: 4.29%

Query: Report viability, T/C for COC(=O)c1ccc2c(C(=Nc3ccc(N(C)C(=O)CN4CCN(C)CC4)cc3)c3ccccc3)c(O)[nH]c2c1 + COc1cc2nc(C)nc(NC(C)c3cc(N)cc(C(F)(F)F)c3)c2cc1OC1CCOC1 please.
Reply: 0.44%
